molecular target: human liver GK (Homo sapiens, UniProt P35557); construct: GST (glutathione S-transferase) (N); assay: GK activation test; details: test compound concentration needed to activate 50% of maximum activation ability; 4 mM 14C-labeled glucose, 2 mM ATP, room temperature, 20 minutes
pEC50: −log10 of the molar value.
Provide the reported pEC50 of each item.

Query block: Report value: pEC50, system: human liver GK (Homo sapiens, UniProt P35557), compound: CC(C)(C)c1ccc(/C(=C\[C@H]2CCC(=O)N2)c2ccc(CCC(N)=O)c(=O)[nH]2)cc1
Result block: 5.52 to 6.30

Query block: Fill in pEC50 for CC(C)c1ccc(/C(=C\[C@H]2CCC(=O)N2)c2ccc(Cl)c(=O)[nH]2)cc1Cl tested with human liver GK (Homo sapiens, UniProt P35557).
Result block: 6.30 to 8.00

Query block: Give measured pEC50 for O=C1CC[C@H](/C=C(\c2ccc(F)c(Cl)c2)c2ccc(C3CC3)c(=O)[nH]2)N1 (human liver GK (Homo sapiens, UniProt P35557)).
Result block: 5.52 to 6.30

Query block: Provide pEC50, system human liver GK (Homo sapiens, UniProt P35557), entry Cc1nc(C)c(-c2ccc(/C(=C/[C@H]3CCC(=O)N3)c3ccc(C(C)(C)C)cc3)[nH]c2=O)s1
Result block: 5.52 to 6.30

* * *

Would you kindly list EC50 for each of these compounds?
molecular target: human liver GK (Homo sapiens); construct: GST (glutathione S-transferase) (N); test: GK activation test; settings: test compound concentration needed to activate 50% of maximum activation ability; 4 mM 14C-labeled glucose, 2 mM ATP, room temperature, 20 minutes

Query block: Supply measured EC50 of CS(=O)(=O)c1ccc(C(CC2CCCC2)c2ccc(C3CC3)c(=O)[nH]2)cc1 (stereo not shown) in your reply.
Result block: 500 to 3000 nM

Query block: Give the measured EC50 for O=C1CC[C@H](/C=C(\c2ccc(S(=O)(=O)C3CC3)cc2)c2ccc(Cl)c(=O)[nH]2)N1
Result block: 10 to 500 nM

Query block: // fetch EC50 given entry CCc1ccc(/C(=C/[C@H]2CCC(=O)C2)c2ccc(S(=O)(=O)C3CC3)cc2)[nH]c1=O
Result block: 10 to 500 nM

Query block: Return value of EC50 for input O=C1CC[C@H](/C=C(\c2ccc(S(=O)(=O)C3CCCC3)cc2)c2ccc(Cl)c(=O)[nH]2)N1 , no commentary.
Result block: 10 to 500 nM

Query block: Annotate the compound CC(C)c1ccc(/C(=C\[C@H]2CCC(=O)N2)c2ccc(C3CC3)c(=O)[nH]2)cc1 with its measured EC50.
Result block: 10 to 500 nM

Query block: Supply EC50 value. Item: O=C1CC[C@H](CC(c2ccc(OC(F)F)cc2)c2ccc(C3CC3)c(=O)[nH]2)N1 (single isomer, unassigned) [Example 4-229]
Result block: 500 to 3000 nM

Query block: Give the reported EC50 for this compound. CSc1ccc(/C(=C\C2CCCC2)c2ccc(C)c(=O)[nH]2)cn1
Result block: 500 to 3000 nM

* * *

Target: human liver GK (Homo sapiens, UniProt P35557)
Construct: GST (glutathione S-transferase) (N)
Sequence (P35557 1-466 isoform P35557-2): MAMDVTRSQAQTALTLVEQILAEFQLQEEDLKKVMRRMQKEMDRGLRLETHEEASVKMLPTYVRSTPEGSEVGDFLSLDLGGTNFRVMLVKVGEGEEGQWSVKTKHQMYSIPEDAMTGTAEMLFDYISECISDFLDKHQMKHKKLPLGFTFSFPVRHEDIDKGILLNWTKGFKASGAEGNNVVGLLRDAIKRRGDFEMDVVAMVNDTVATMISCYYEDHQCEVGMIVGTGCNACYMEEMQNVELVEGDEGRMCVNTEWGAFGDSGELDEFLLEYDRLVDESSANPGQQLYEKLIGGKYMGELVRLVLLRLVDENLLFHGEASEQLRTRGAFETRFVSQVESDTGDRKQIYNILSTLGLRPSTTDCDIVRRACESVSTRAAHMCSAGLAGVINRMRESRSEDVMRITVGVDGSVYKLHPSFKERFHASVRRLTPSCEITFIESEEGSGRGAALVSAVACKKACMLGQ
Assay: GK activation test
Conditions: test compound concentration needed to activate 50% of maximum activation ability; 4 mM 14C-labeled glucose, 2 mM ATP, room temperature, 20 minutes
I'd be grateful if you could share measured EC50 for these entries.

Query block: Please indicate EC50 recorded for CS(=O)(=O)c1ccc(/C(=C\[C@H]2CCC(=O)N2)c2ccc(C3CC3)c(=O)[nH]2)cn1 [Example 4-142]
Result block: 0.5 to 3 µM

Query block: Return the recorded EC50 value; entry: Cc1cc(C(C[C@H]2CCC(=O)N2)c2ccc(C3CC3)c(=O)[nH]2)ccc1Cl (single isomer, unassigned) [Example 4-214]
Result block: 3 to 10 µM

Query block: Query EC50 for Cc1ccc(/C(=C/C2CCCC2)c2ccc(S(C)(=O)=O)nc2)[nH]c1=O [Example 1-35]
Result block: 0.5 to 3 µM

Query block: Given O=C1CC[C@H](CC(c2ccc(Cl)c(C(F)(F)F)c2)c2ccc(C3CC3)c(=O)[nH]2)N1 (single isomer, unassigned) [Example 4-221] , respond with its EC50.
Result block: 0.5 to 3 µM

Query block: Check the records and state EC50 for CC(C)(C)c1ccc(/C(=C\[C@H]2CCC(=O)N2)c2ccc(Cl)c(=O)[nH]2)cc1Cl [Example 4-71]
Result block: 0.01 to 0.5 µM

Query block: Fill in reported EC50 for this entry: CC(C)(C)c1ccc(/C(=C\CN2CCOCC2)c2ccc(Cl)c(=O)[nH]2)cc1 [Example 6-5]
Result block: 3 to 10 µM

Query block: Check the records and state EC50 for CCN(CC)CCCOc1ccc(/C(=C\C2CCOCC2)c2ccc(C3CC3)c(=O)[nH]2)cc1Cl [Example 1-57]
Result block: 0.5 to 3 µM

* * *

biological target: human liver GK (Homo sapiens); construct: GST (glutathione S-transferase) (N); assay: GK activation test; details: test compound concentration needed to activate 50% of maximum activation ability; 4 mM 14C-labeled glucose, 2 mM ATP, room temperature, 20 minutes
Assign EC50 to each entry below.

Query block: Could you please provide reported EC50 for CCOc1ccc(/C(=C\[C@H]2CCC(=O)N2)c2ccc(Cl)c(=O)[nH]2)cc1C [Example 4-50] ? Thanks!
Result block: 500 to 3000 nM

Query block: Identify the reported EC50 for the following entry. Cc1ccc(/C(=C/[C@H]2CCC(=O)C2)c2ccc(S(=O)(=O)C3CC3)cc2)[nH]c1=O [Example 1-61]
Result block: 10 to 500 nM

Query block: // fetch EC50 given entry CN(C)CCCCc1ccc(/C(=C/[C@H]2CCC(=O)N2)c2ccc(C(C)(C)C)cc2)[nH]c1=O [Example 4-191]
Result block: 500 to 3000 nM

Query block: State its EC50 for this compound: O=C1CC[C@H](/C=C(\c2ccc(OC(F)(F)F)c(Cl)c2)c2ccc(C3CC3)c(=O)[nH]2)N1 [Example 4-128]
Result block: 10 to 500 nM

Query block: Identify EC50 associated with the compound O=C1CC[C@H](/C=C(\c2ccc(SC(F)(F)F)cc2)c2ccc(C3CC3)c(=O)[nH]2)N1 [Example 4-141]
Result block: 10 to 500 nM

Query block: Look up and state reported EC50 for COc1cc(F)c(/C(=C\[C@H]2CCC(=O)N2)c2ccc(C3CC3)c(=O)[nH]2)cc1Cl [Example 4-274]
Result block: 10 to 500 nM

Query block: Specify EC50 for O=C1CC[C@H](/C=C(\c2ccc(OCCCCN3CCCC3)c(Cl)c2)c2ccc(Cl)c(=O)[nH]2)N1 [Example 4-64] and stop.
Result block: 10 to 500 nM

* * *

For each of the compounds below, state its EC50.
biological target: human liver GK (Homo sapiens, UniProt P35557); construct: GST (glutathione S-transferase) (N); assay: GK activation test; conditions: test compound concentration needed to activate 50% of maximum activation ability; 4 mM 14C-labeled glucose, 2 mM ATP, room temperature, 20 minutes

Query block: Return reported EC50 for target or system human liver GK (Homo sapiens, UniProt P35557), item COc1ccc(/C(=C\[C@H]2CCC(=O)N2)c2ccc(C3CC3)c(=O)[nH]2)cc1C(F)(F)F [Example 4-134] .
Result block: 10 to 500 nM

Query block: State EC50 on human liver GK (Homo sapiens, UniProt P35557). Entry: CC(C)Oc1ccc(C(C[C@H]2CCC(=O)N2)c2ccc(C3CC3)c(=O)[nH]2)cc1Cl (single isomer, unassigned) [Example 4-322]
Result block: 10 to 500 nM

Query block: Give EC50 for this entry on human liver GK (Homo sapiens, UniProt P35557): Cc1ccc(C(CCC2CCCC2)c2ccc(S(=O)(=O)C3CC3)cc2)[nH]c1=O (centres unmarked) [Example 2-15]
Result block: 10 to 500 nM

Query block: Give measured EC50 for CC(C)(C)c1ccc(/C(=C\[C@H]2CCC(=O)N2)c2ccc(-c3cccnc3)c(=O)[nH]2)cc1 [Example 4-180] (human liver GK (Homo sapiens, UniProt P35557)).
Result block: 10 to 500 nM

Query block: Answer with EC50 of O=C1CC[C@H](/C=C(\c2ccc(O)c(Cl)c2)c2ccc(C3CC3)c(=O)[nH]2)N1 [Example 4-145] measured for human liver GK (Homo sapiens, UniProt P35557).
Result block: 10 to 500 nM

Query block: Name the recorded EC50 of O=C1CC[C@H](/C=C(\c2ccc(Cl)cc2)c2ccc(OCCCO)c(=O)[nH]2)N1 [Example 4-169] , assay system human liver GK (Homo sapiens, UniProt P35557).
Result block: 3000 to 10000 nM

Query block: // fetch EC50; item: CC(C)(C)c1ccc(/C(=C\[C@H]2CCC(=O)N2)c2ccc(Oc3ccc(C(F)(F)F)cc3)c(=O)[nH]2)cc1 [Example 4-189] ; system: human liver GK (Homo sapiens, UniProt P35557)
Result block: 500 to 3000 nM

Query block: State the measured EC50 (human liver GK (Homo sapiens, UniProt P35557)) of CC(C)Oc1ccc(/C(=C\[C@H]2CCC(=O)N2)c2ccc(Cl)c(=O)[nH]2)cc1Cl [Example 4-32]
Result block: 10 to 500 nM

Query block: Specify the recorded EC50 for O=C1CC[C@H](/C=C(\c2ccc(S(=O)(=O)N3CCOCC3)cc2)c2ccc(C3CC3)c(=O)[nH]2)N1 [Example 4-138] , system: human liver GK (Homo sapiens, UniProt P35557).
Result block: 10 to 500 nM

Query block: # lookup: human liver GK (Homo sapiens, UniProt P35557) EC50, key = CS(=O)(=O)c1ccc(/C(=C\CCCO)c2ccc(C3CC3)c(=O)[nH]2)cc1 [Example 1-97]
Result block: 500 to 3000 nM

Query block: Report EC50 under test system human liver GK (Homo sapiens, UniProt P35557) for CCc1ccc(C(C[C@H]2CCC(=O)N2)c2ccc(Cl)c(=O)[nH]2)cc1Cl (single isomer, unassigned) [Example 4-325] .
Result block: 3000 to 10000 nM

Query block: For human liver GK (Homo sapiens, UniProt P35557), give the measured EC50 of the entry O=C1CC[C@H](/C=C(\c2cc(C(F)(F)F)cc(C(F)(F)F)c2)c2ccc(C3CC3)c(=O)[nH]2)N1 [Example 4-119]
Result block: 500 to 3000 nM

Query block: Output reported EC50 of the compound CC(C)CCCOc1ccc(/C(=C\[C@H]2CCC(=O)N2)c2ccc(Cl)c(=O)[nH]2)cc1Cl [Example 4-21] on human liver GK (Homo sapiens, UniProt P35557).
Result block: 10 to 500 nM

Query block: Give reported EC50 for CC(C)(C)c1ccc(C(C[C@H]2CCC(=O)N2)c2ccc(OC(F)F)c(=O)[nH]2)cc1 (single isomer, unassigned) [Example 4-246] (human liver GK (Homo sapiens, UniProt P35557))
Result block: 500 to 3000 nM
